Recorded IC50 for the following compounds
Measured target: RAC-alpha serine/threonine-protein kinase (Homo sapiens, UniProt P31749)
Sequence (P31749 whole entry): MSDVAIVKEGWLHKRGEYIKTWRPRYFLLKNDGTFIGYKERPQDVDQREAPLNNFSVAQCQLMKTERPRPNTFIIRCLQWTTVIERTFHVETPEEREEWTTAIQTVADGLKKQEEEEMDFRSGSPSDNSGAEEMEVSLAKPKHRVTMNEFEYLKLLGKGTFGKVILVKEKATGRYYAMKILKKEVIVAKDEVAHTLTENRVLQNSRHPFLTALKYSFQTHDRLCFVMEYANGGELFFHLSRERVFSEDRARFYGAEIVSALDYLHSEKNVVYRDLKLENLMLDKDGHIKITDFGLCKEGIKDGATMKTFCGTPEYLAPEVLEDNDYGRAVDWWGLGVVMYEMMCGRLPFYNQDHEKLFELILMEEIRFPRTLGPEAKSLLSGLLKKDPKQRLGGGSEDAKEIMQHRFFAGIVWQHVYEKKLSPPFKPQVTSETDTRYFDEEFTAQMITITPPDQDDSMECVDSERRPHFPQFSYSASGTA
Assay notes: Inhibition of Akt1 in human AN3CA cells assessed as phosphorylation of Akt at S473 after 2 hrs by Western Blot analysis
Format: cell-based, AN3-CA
Answer format: numeric, nM implied, no suffix.

Example entries and their recorded answers appear below.
{"columns": ["Chemical string", "Measured target", "IC50, nM"],
 "data": [
  ["Nc1ncccc1-c1nc2cc(-c3cccnc3)cnc2n1-c1ccc(CNC(=O)c2cccc(F)c2)cc1", "RAC-alpha serine/threonine-protein kinase (Homo sapiens, UniProt P31749)", 46],
  ["Nc1ncccc1-c1nc2cc(-c3cccnc3)cnc2n1-c1ccc(CNC(=O)c2ccccc2)cc1", "RAC-alpha serine/threonine-protein kinase (Homo sapiens, UniProt P31749)", 80]
]}

Recorded IC50 (compound `Nc1ncccc1-c1nc2cc(-c3ccccc3)cnc2n1-c1ccc(CNC(=O)c2ccccc2)cc1` ): 160

###

Measured target: RAC-beta serine/threonine-protein kinase (Homo sapiens)
Sequence (P31751 whole entry): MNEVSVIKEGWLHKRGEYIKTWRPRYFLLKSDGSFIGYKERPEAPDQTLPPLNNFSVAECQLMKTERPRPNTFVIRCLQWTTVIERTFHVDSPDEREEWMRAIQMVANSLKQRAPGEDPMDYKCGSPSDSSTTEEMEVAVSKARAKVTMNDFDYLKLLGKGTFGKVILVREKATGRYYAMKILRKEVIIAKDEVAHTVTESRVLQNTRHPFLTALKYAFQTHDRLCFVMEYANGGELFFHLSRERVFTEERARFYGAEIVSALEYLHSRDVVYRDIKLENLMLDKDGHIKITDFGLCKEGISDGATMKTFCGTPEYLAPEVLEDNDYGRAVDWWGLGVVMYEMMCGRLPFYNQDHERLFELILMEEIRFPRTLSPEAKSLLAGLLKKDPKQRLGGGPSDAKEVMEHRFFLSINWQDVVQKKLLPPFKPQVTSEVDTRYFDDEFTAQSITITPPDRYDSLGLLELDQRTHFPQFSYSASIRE
Assay notes: Binding affinity to Akt2 (1 to 481) expressed in Sf9 cells assessed as change in melting temperature at 15 uM
Parameter measured: ΔTm
Output should be the measured figure followed by the unit it is expressed in.

{"columns": ["Chemical string", "Measured target", "Parameter measured", "Result"],
 "data": [
  ["CC(=O)Nc1cccc(-c2ccc3nc(-c4cccnc4N)n(-c4ccc(CNC(=O)c5ccccc5)cc4)c3n2)c1", "RAC-beta serine/threonine-protein kinase (Homo sapiens)", "ΔTm", "6.7 °C"]
]}

Recorded ΔTm (molecule `Nc1ncccc1-c1nc2cc(-c3cccnc3)cnc2n1-c1ccc(CNC(=O)c2cccc(F)c2)cc1` ): 5.4 °C

Recorded ΔTm (molecule `Nc1ncccc1-c1nc2cc(-c3cccnc3)cnc2n1-c1ccc(CNC(=O)c2ccccc2)cc1` ): 4.8 °C

Recorded ΔTm (molecule `CC(=O)Nc1cccc(-c2ccc3nc(-c4cccnc4N)n(-c4ccc(CC(=O)Nc5cccc(F)c5)cc4)c3n2)c1` ): 6.7 °C

Recorded ΔTm (molecule `Nc1ncccc1-c1nc2ccc(-c3ccccc3)nc2n1-c1ccc(CNC(=O)c2ccccc2)cc1` ): 6.4 °C

Recorded ΔTm (molecule `Nc1ncccc1-c1nc2cc(-c3ccccc3)cnc2n1-c1ccc(CNC(=O)c2ccccc2)cc1` ): 1.2 °C

###

Measured target: RAC-alpha serine/threonine-protein kinase (Homo sapiens, UniProt P31749)
Assay notes: Inhibition of Akt1 in human A2780 cells assessed as phosphorylation PRAS40 at T246 after 2 hrs by Western Blot analysis
Type: cell-based
Parameter measured: IC50 (nM)
Answer format: numeric, nM implied, no suffix.

Recorded IC50 (compound `Nc1ncccc1-c1nc2cc(-c3cccnc3)cnc2n1-c1ccc(CNC(=O)c2ccccc2)cc1` ): 950

Recorded IC50 (compound `Nc1ncccc1-c1nc2ccc(-c3cccnc3)nc2n1-c1ccc(CNC(=O)c2ccccc2)cc1` ): 740

Recorded IC50 (compound `Nc1ncccc1-c1nc2cc(-c3ccccc3)cnc2n1-c1ccc(CNC(=O)c2ccccc2)cc1` ): 1800

###

Recorded IC50 for the following molecules
Measured target: RAC-alpha serine/threonine-protein kinase (Homo sapiens)
Assay notes: Inhibition of Akt 1 in human A2780 cells assessed as phosphorylation of Akt at T308 after 2 hrs by Western Blot analysis
Type: cell-based
Answer format: numeric, nM implied, no suffix.

Example entries and their recorded answers appear below.
{"columns": ["Chemical string", "Numeric result"],
 "data": [
  ["Nc1ncccc1-c1nc2ccc(-c3cccnc3)nc2n1-c1ccc(CNC(=O)c2ccccc2)cc1", 67],
  ["CC(=O)Nc1cccc(-c2ccc3nc(-c4cccnc4N)n(-c4ccc(CNC(=O)c5ccccc5)cc4)c3n2)c1", 140]
]}

Recorded IC50 (molecule `Nc1ncccc1-c1nc2cccnc2n1-c1ccc(CNC(=O)c2ccccc2)cc1` ): 370

Recorded IC50 (molecule `Nc1ncccc1-c1nc2cc(-c3ccccc3)cnc2n1-c1ccc(CNC(=O)c2ccccc2)cc1` ): 680

###

Measured target: RAC-alpha serine/threonine-protein kinase (Homo sapiens, UniProt P31749)
Assay notes: Inhibition of Akt1 in human A2780 cells assessed as phosphorylation of Akt at S473 after 2 hrs by Western Blot analysis
Format: cell-based
Parameter measured: pIC50
The meaning of pIC50 here: minus log10 of the concentration in molar units.

Example entries and their recorded answers appear below.
{"columns": ["Chemical string", "Measured target", "pIC50"],
 "data": [
  ["Nc1ncccc1-c1nc2cc(-c3cccnc3)cnc2n1-c1ccc(CNC(=O)c2ccccc2)cc1", "RAC-alpha serine/threonine-protein kinase (Homo sapiens, UniProt P31749)", 7.00],
  ["Nc1ncccc1-c1nc2cccnc2n1-c1ccc(CNC(=O)c2ccccc2)cc1", "RAC-alpha serine/threonine-protein kinase (Homo sapiens, UniProt P31749)", 6.39],
  ["CC(=O)Nc1cccc(-c2ccc3nc(-c4cccnc4N)n(-c4ccc(CNC(=O)c5ccccc5)cc4)c3n2)c1", "RAC-alpha serine/threonine-protein kinase (Homo sapiens, UniProt P31749)", 6.89]
]}

Recorded pIC50 (molecule `Nc1ncccc1-c1nc2ccc(-c3cccnc3)nc2n1-c1ccc(CNC(=O)c2cccc(F)c2)cc1` ): 6.72

Recorded pIC50 (molecule `Nc1ncccc1-c1nc2ccc(-c3ccccc3)nc2n1-c1ccc(CNC(=O)c2ccccc2)cc1` ): 7.17

Recorded pIC50 (molecule `CC(=O)Nc1cccc(-c2ccc3nc(-c4cccnc4N)n(-c4ccc(CNC(=O)c5cccc(F)c5)cc4)c3n2)c1` ): 7.57

Recorded pIC50 (molecule `Nc1ncccc1-c1nc2ccc(-c3cccnc3)nc2n1-c1ccc(CNC(=O)c2ccccc2)cc1` ): 7.47

Recorded pIC50 (molecule `Nc1ncccc1-c1nc2ccc(-c3cccnc3)nc2n1-c1ccc(CC(=O)Nc2ccccc2)cc1` ): 7.19

Recorded pIC50 (molecule `Nc1ncccc1-c1nc2cc(-c3cccnc3)cnc2n1-c1ccc(CNC(=O)c2cccc(F)c2)cc1` ): 7.27

Recorded pIC50 (molecule `Nc1ncccc1-c1nc2cc(-c3ccccc3)cnc2n1-c1ccc(CNC(=O)c2ccccc2)cc1` ): 6.48
